ASSAY: Determination of acidity constants (pKa) by potentiometric titration
MEASUREMENT CONDITIONS: MeOH/H2O (1:1 v/v) solution
RESULT TYPE: pKa

pKa lookup needed for C[Si]1(C)OB(O)c2cc(F)c(SCCS(=O)(=O)c3ccccc3)c(F)c21 [Compound 20] , thanks.
5.7

###

Exercise: state measured MIC for each of the compounds provided.
Test system: S. maltophilia ATCC 13637
ASSAY: Antibacterial activity: MIC/MBC, MIC with PAβN, disc-diffusion
Assay type: cell-based, Stenotrophomonas maltophilia
MEASUREMENT CONDITIONS: Stenotrophomonas maltophilia, ATCC13637; S. maltophilia ATCC 13637; read-out: MIC

Recorded results for 5 compounds are shown here.
1) C[Si]1(C)OB(O)c2ccc(SC3CC(=O)N(c4ccc(F)cc4)C3=O)c(F)c21 (centres unmarked): > 200 µg/mL
2) C[Si]1(C)OB(O)c2cc(F)c(SCCC(=O)N3CCOCC3)c(F)c21: > 400 µg/mL
3) C[Si]1(C)OB(O)c2cc(F)c(S(=O)(=O)N3CCOCC3)c(F)c21: > 400 µg/mL
4) O=C1CN(/N=C/c2ccc([N+](=O)[O-])o2)C(=O)N1 [NF, nitrofurantoin, reference compound]: 128 µg/mL
5) C[Si]1(C)OB(O)c2cc(F)c(SCCC(=O)OCCCCCC[n+]3ccccc3)c(F)c21: > 400 µg/mL

Would you mind giving MIC for every compound in the list below?
1. C[Si]1(C)OB(O)c2ccc(SCCC(=O)OCCCCCC[n+]3ccccc3)c(F)c21
2. C[Si]1(C)OB(O)c2ccc(SCCS(=O)(=O)c3ccccc3)c(F)c21
3. C[Si]1(C)OB(O)c2cc(F)c(SC3CC(=O)NC3=O)c(F)c21 (centres unmarked)

["> 400 µg/mL", "> 400 µg/mL", "50 µg/mL"]

###

System: Human normal lung fibroblasts MRC-5
ASSAY: MTT-based viability (cytotoxicity) assay
MEASUREMENT CONDITIONS: 200 µg·mL−1, 48 h
Experimental: To evaluate the cytotoxic effect of the tested compounds, an MTT-based assay was performed. […] Moreover, based on available IC50 and MIC (for standard and clinical S. aureus MRSA strains) values, the selectivity index (SI) was calculated for several compounds as the IC50/MIC ratio (Table 5).[60] […]
Consider the following molecules; for each one, report its viability of MRC-5.

1. C[Si]1(C)OB(O)c2cc(F)c(S(=O)(=O)Nc3ccc(F)cc3)c(F)c21: 32.5±0.0 % of control ± SD

Give me viability of MRC-5 for each of these molecules, listed below.
1. C[Si]1(C)OB(O)c2ccc(SCC(=O)c3ccccc3)c(F)c21
2. C[Si]1(C)OB(O)c2cc(F)c(SCCC#N)c(F)c21
3. CC(=O)CSc1ccc2c(c1F)[Si](C)(C)OB2O

1: 32.0±0.3 % of control ± SD; 2: 43.6±5.1 % of control ± SD; 3: 69.6±3.7 % of control ± SD

State the recorded viability of MRC-5 for every item in the following list.
1. C[Si]1(C)OB(O)c2cc(F)c(S(=O)(=O)N3CCOCC3)c(F)c21
2. C[Si]1(C)OB(O)c2cc(F)c(SC3CC(=O)N(c4ccc(Br)c(C(F)(F)F)c4)C3=O)c(F)c21 (stereo not shown)

1: 69.6±2.4 % of control ± SD; 2: 0.4±0.2 % of control ± SD

Hi team, please reply with viability of MRC-5 for each item in this list.
1. C[Si]1(C)OB(O)c2ccc(SC3CC(=O)N(c4ccc(Br)c(C(F)(F)F)c4)C3=O)c(F)c21 (stereo not shown)
2. C[Si]1(C)OB(O)c2cc(F)c(SC3CC(=O)N(c4ccc(F)cc4)C3=O)c(F)c21 (stereo not shown)
3. C[Si]1(C)OB(O)c2cc(F)c(SCCS(=O)(=O)c3ccccc3)c(F)c21
4. CCOP(=O)(OCC)Sc1c(F)cc2c(c1F)[Si](C)(C)OB2O

1: 29.5±0.3 % of control ± SD; 2: 27.3±3.2 % of control ± SD; 3: 38.8±4.8 % of control ± SD; 4: 76.5±3.8 % of control ± SD

Hello, I would appreciate it if you could give viability of MRC-5 for each entry below.
1. C[Si]1(C)OB(O)c2ccc(SC3CC(=O)N(c4ccc(F)cc4)C3=O)c(F)c21 (stereo not shown)
2. C[Si]1(C)OB(O)c2cc(F)c(S(N)(=O)=O)c(F)c21
3. C[Si]1(C)OB(O)c2cc(F)c(SC3CC(=O)NC3=O)c(F)c21 (stereo not shown)

1: 41.5±0.7 % of control ± SD; 2: 68.5±3.4 % of control ± SD; 3: 46.9±2.7 % of control ± SD

###

Test system: S. epidermidis ATCC 12228
ASSAY: Antibacterial activity: MIC/MBC determination and disc-diffusion
Assay type: cell-based
MEASUREMENT CONDITIONS: Staphylococcus epidermidis, ATCC12228; S. epidermidis ATCC 12228; read-out: MIC
RESULT TYPE: MIC
Give me the value, and tack the unit on after it.

1. C[Si]1(C)OB(O)c2cc(F)c(SC3CC(=O)NC3=O)c(F)c21 (centres unmarked): 6.25 µg/mL

Hey, quick one: what's MIC for each of these?
1. C[Si]1(C)OB(O)c2cc(F)c(S(=O)(=O)Cl)c(F)c21
2. C[Si]1(C)OB(O)c2cc(F)c(SCCC(=O)Nc3cnccn3)c(F)c21
3. C[Si]1(C)OB(O)c2ccc(S)c(F)c21
4. COC(=O)CCSc1ccc2c(c1F)[Si](C)(C)OB2O

1: 200 µg/mL; 2: 50 µg/mL; 3: 6.25 µg/mL; 4: 25 µg/mL

###

System: S. maltophilia ATCC 13637
ASSAY: Antibacterial activity: MIC/MBC, MIC with PAβN, disc-diffusion
Assay type: cell-based, Stenotrophomonas maltophilia
MEASUREMENT CONDITIONS: Stenotrophomonas maltophilia, ATCC13637; S. maltophilia ATCC 13637
RESULT TYPE: MBC (mg/L)
One number for each entry, in mg/L.

Below are 3 compounds. Give each one its MBC.
1. C[Si]1(C)OB(O)c2cc(F)c(SC3CC(=O)NC3=O)c(F)c21 (stereo not shown) [Compound 12]
2. C[Si]1(C)OB(O)c2cc(F)c(SC3CC(=O)N(c4ccc(F)cc4)C3=O)c(F)c21 (stereo not shown) [Compound 14]
3. C[Si]1(C)OB(O)c2ccc(SC3CC(=O)NC3=O)c(F)c21 (stereo not shown) [Compound 13]

1. 100
2. 100
3. 50

###

Exercise: for every item that follows, state its recorded viability of MRC-5.
Test system: Human normal lung fibroblasts MRC-5
ASSAY: MTT-based viability (cytotoxicity) assay
MEASUREMENT CONDITIONS: 100 µg·mL−1, 48 h

1) C[Si]1(C)OB(O)c2ccc(SC3CC(=O)N(c4ccc(Br)c(C(F)(F)F)c4)C3=O)c(F)c21 (stereo not shown): 71.2±1.3 % of control ± SD
2) CC(=O)CSc1ccc2c(c1F)[Si](C)(C)OB2O: 78.4±4.5 % of control ± SD
3) C[Si]1(C)OB(O)c2ccc(SC3CC(=O)N(c4ccc(F)cc4)C3=O)c(F)c21 (stereo not shown): 65.0±0.1 % of control ± SD

// input: 4 molecules below; output: viability of MRC-5 for each
1. C[Si]1(C)OB(O)c2cc(F)c(SCCS(=O)(=O)c3ccccc3)c(F)c21
2. C[Si]1(C)OB(O)c2cc(F)c(SC3CC(=O)N(c4ccc(F)cc4)C3=O)c(F)c21 (stereo not shown)
3. C[Si]1(C)OB(O)c2cc(F)c(SC3CC(=O)N(c4ccc(Br)c(C(F)(F)F)c4)C3=O)c(F)c21 (stereo not shown)
4. C[Si]1(C)OB(O)c2cc(F)c(S(=O)(=O)Nc3ccc(F)cc3)c(F)c21

1. 68.5±4.9 % of control ± SD
2. 52.0±2.8 % of control ± SD
3. 46.0±1.4 % of control ± SD
4. 47.7±3.7 % of control ± SD

Lab note: each molecule below needs its viability of MRC-5 filled in.
1. C[Si]1(C)OB(O)c2cc(F)c(SC3CC(=O)NC3=O)c(F)c21 (stereo not shown)
2. CCOP(=O)(OCC)Sc1c(F)cc2c(c1F)[Si](C)(C)OB2O
3. C[Si]1(C)OB(O)c2cc(F)c(SCCC#N)c(F)c21
4. C[Si]1(C)OB(O)c2ccc(SCC(=O)c3ccccc3)c(F)c21

["76.4±3.5 % of control ± SD", "73.0±4.0 % of control ± SD", "90.4±0.5 % of control ± SD", "64.2±3.6 % of control ± SD"]

Count: 2. Required value per item: viability of MRC-5.
1. C[Si]1(C)OB(O)c2cc(F)c(S(=O)(=O)N3CCOCC3)c(F)c21
2. C[Si]1(C)OB(O)c2cc(F)c(S(N)(=O)=O)c(F)c21

1: 74.1±0.5 % of control ± SD; 2: 74.3±7.9 % of control ± SD
